- tgt: human PD1 on cells (human, UniProt Q15116 25-288)
- Sequence (Q15116 25-288 limits assumed): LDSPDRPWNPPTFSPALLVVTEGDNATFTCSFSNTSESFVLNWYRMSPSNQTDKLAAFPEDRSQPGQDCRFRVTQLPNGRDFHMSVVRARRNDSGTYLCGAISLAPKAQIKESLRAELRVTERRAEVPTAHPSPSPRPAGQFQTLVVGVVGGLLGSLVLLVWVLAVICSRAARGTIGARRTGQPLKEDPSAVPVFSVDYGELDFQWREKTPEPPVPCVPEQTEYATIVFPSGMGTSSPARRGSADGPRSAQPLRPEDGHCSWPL
- test-method-notes: cell-based or functional assay
readout-type: PD1 blocking activity (reporter assay) Fold induction (fold)

{"binder": "P-1178 (antibody, human IgG1, kappa, V domains shown) VH: EVQLLESGGGLVQPGGSLRLSCAASGFTFTNYYMYWVRQAPGKGLEWMGGINPSNGGTNYADKFKGRFTLSTDSSKNTLYLQMNSLRAEDTAVYYCARRDYRFDMGFDYWGQGTLVTVSS VL: EIVLTQSPATLSLSPGERATLSCRASKGVSTSGYSYLHWYQQKPGQAPRLLIYLASYLESGVPARFSGSGSGTDFTLTISSLEPEDFAVYYCQHSRDLPLTFGGGTKVEIKR", "data-value": 5.5}
{"binder": "P-1175 (antibody, human IgG1, kappa, V domains shown) VH: EVQLLESGGGLVQPGGSLRLSCAASGFTFTNYYMYWVRQAPGKGLEWVSGINPSNGGTNYADKFKGRFTISRDNSKNTLYLQMNSLRAEDTAVYYCARRDYRFDMGFDYWGQGTLVTVSS VL: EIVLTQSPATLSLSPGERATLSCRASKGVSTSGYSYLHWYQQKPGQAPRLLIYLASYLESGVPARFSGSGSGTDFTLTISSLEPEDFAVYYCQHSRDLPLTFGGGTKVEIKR", "data-value": 4.07}
{"binder": "P-1176 (antibody, human IgG1, kappa, V domains shown) VH: EVQLLESGGGLVQPGGSLRLSCAASGFTFTNYYMYWVRQAPGKGLEWVSGINPSNGGTNYADKFKGRFTLSTDSSKNTLYLQMNSLRAEDTAVYYCARRDYRFDMGFDYWGQGTLVTVSS VL: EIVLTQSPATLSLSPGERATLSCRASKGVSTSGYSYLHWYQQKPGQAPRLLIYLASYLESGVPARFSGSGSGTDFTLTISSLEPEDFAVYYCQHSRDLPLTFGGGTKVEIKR", "data-value": 5.27}
